The origin of these recorded values is patent US20250122173A1.

target: ROCK1 (Homo sapiens)
Sequence (Q13464 whole entry): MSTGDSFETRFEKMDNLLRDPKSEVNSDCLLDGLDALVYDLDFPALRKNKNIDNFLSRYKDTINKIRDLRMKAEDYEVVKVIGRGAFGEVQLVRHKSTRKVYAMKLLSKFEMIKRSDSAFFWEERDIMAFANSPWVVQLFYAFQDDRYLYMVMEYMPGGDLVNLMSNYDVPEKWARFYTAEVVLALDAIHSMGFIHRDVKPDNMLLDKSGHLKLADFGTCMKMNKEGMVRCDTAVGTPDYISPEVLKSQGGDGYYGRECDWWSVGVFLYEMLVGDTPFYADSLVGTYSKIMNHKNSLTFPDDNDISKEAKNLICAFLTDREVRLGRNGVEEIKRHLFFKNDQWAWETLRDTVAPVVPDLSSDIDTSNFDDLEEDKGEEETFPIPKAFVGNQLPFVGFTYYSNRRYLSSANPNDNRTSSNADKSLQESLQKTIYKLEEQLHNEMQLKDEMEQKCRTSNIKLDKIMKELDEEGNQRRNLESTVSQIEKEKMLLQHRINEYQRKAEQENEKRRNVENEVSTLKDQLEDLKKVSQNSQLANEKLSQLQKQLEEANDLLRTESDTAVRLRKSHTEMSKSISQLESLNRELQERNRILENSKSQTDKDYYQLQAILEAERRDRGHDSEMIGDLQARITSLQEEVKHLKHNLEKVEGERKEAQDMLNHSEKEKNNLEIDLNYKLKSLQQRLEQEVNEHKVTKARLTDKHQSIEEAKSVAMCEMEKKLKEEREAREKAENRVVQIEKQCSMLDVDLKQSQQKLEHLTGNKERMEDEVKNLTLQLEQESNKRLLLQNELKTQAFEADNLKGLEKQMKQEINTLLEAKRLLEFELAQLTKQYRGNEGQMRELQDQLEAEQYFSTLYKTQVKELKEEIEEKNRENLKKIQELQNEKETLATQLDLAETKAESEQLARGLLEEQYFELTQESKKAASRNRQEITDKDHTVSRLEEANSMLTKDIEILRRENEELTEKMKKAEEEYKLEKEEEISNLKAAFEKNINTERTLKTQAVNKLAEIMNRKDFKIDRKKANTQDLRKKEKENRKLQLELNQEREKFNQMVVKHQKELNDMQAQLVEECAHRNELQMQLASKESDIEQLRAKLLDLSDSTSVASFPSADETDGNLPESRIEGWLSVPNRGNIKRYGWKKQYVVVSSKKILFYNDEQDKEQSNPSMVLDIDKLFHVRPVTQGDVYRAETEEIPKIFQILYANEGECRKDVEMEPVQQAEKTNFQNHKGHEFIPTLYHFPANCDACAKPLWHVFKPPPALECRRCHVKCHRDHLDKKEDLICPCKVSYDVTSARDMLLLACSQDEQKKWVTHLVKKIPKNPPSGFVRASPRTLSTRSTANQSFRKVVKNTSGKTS
pIC50: −log10 of the molar value.
The compounds listed here are annotated with their pIC50.
observedProperty: pIC50

> print(dat)
                                    compound  observedproperty  reportedresult
 1  CCn1nc(-c2ccc(-c3cc(C)c(C)cn3)c(C)c2)nc1Nc1cc2c(cc1C)C(=O)NC2C (stereo not shown)             pIC50    5.00 to 5.52
 2  CCn1nc(-c2ccc(C3=CCN(C)CC3)cc2C)nc1Nc1cc2c(cc1C)C(=O)NC2C (stereo not shown)             pIC50          < 5.00
 3  CCn1nc(-c2ccc(-c3ccn(C)c3)c(C)c2)nc1Nc1cc2c(cc1C)C(=O)NC2C (stereo not shown)             pIC50    5.00 to 5.52
 4  CCn1nc(-c2ccc(-c3ccc(C)cn3)c(F)c2)nc1Nc1ccc2c(c1)CNC2=O             pIC50          < 5.00
 5  CCn1nc(-c2ccc(C3CCN(C)CC3)cc2C)nc1Nc1cc2c(cc1C)C(=O)NC2C (stereo not shown)             pIC50          < 5.00
 6  CCn1nc(-c2ccc(-c3ccc(C4CC4)nc3)nc2)nc1Nc1ccc2c(c1)C(C)NC2=O (stereo not shown)             pIC50          < 5.00
 7  CCn1nc(-c2ccc(-c3cc(C)cnc3C)c(C)c2)nc1Nc1cc2c(cc1C)C(=O)NC2C (stereo not shown)             pIC50          < 5.00
 8  CCn1nc(-c2ccc(-c3cn(C)c(C4CC4)n3)cc2C)nc1Nc1cc2c(cc1C)C(=O)NC2C (stereo not shown)             pIC50    5.00 to 5.52
 9  CCn1nc(-c2ccc(-n3cc(C4CC4)nc3C)cc2)nc1Nc1ccc2c(c1)C(C)NC2=O (stereo not shown)             pIC50    5.00 to 5.52
10  CCn1nc(-c2ccc(-c3ccc(C4CC4)nc3)nc2)nc1Nc1cc2c(cc1C)C(=O)NC2C (stereo not shown)             pIC50    5.00 to 5.52
11  CCn1nc(-c2ccc(-n3cnc(C4CC4)c3)cc2)nc1Nc1ccc2c(c1)C1(CC1)NC2=O             pIC50          < 5.00
12  CCn1nc(-c2cc(C)c(-c3ccc(C4CC4)nc3)cc2C)nc1Nc1cc2c(cc1C)C(=O)NC2C (stereo not shown)             pIC50          < 5.00
13  CCn1nc(-c2ccc(-c3ccc(C)nc3)cc2)nc1Nc1cc2c(cc1C)C(=O)NC2             pIC50    5.52 to 6.52
14  CCn1nc(-c2ccc(C3CCCN(C)C3)cc2)nc1Nc1cc2c(cc1C)C(=O)NC2C (stereo not shown)             pIC50          < 5.00
15  CCn1nc(-c2ccc(C3CCN(CC(F)(F)F)CC3)cc2)nc1Nc1cc2c(cc1C)C(=O)NC2C (stereo not shown)             pIC50          < 5.00
16  CCn1nc(-c2cc(C)c(-c3cn(C)c(C4CC4)n3)cc2C)nc1Nc1ccc2c(c1)C(C)NC2=O (stereo not shown)             pIC50    5.00 to 5.52
